Tested on: CRL-2813
Test: Cell growth assay (sulforhodamine B), CRL-2813 cells
Format: cell-based, human
Details: Homo sapiens, CRL2813, 120 h, 5 days, SRB
Listing: IC50 of selected compounds
API: value field is a number in µM; no unit string.

// IC50 lookup, compound = CC(C)(C)c1ccc(O)c(C2(c3cc(C(C)(C)C)ccc3OCCBr)C(=O)Nc3ccccc32)c1 (centres unmarked) , result: 1

// IC50 lookup, compound = COc1ccc(C2(c3cc(C(C)(C)C)ccc3OCCN3CCOCC3)C(=O)Nc3ccc(OC(F)(F)F)cc32)cc1 (centres unmarked) , result: 1.9

---

Test system: CRL-2813
Assay: Cell growth assay (sulforhodamine B), CRL-2813 cells
Format: cell-based, human
Conditions: Homo sapiens, CRL2813, 120 h, 5 days, SRB
Protocol: Adherent mouse (KLN) and human solid tumor cells (CRL-2351, and CRL-2813) were plated in 96-well plates and maintained for 5 days in the presence of 0.54 to 6 μM of individual compound, and cell proliferation was measured by the sulforhodamine B (SRB) assay as described in ref. 11: briefly, cells were fixed in 10% cold trichloroacetic acid at 4° C. for 1 h, extensively washed with double-distilled H2O and air-dried. […]
Listing: IC50 of selected compounds
API: value field is a number in µM; no unit string.

>>> numeric_readout("CC(C)(C)c1ccc(O)c(C2(c3cc(C(C)(C)C)ccc3OCCBr)C(=O)N(CCBr)c3ccccc32)c1 (centres unmarked)")
1.1
>>> numeric_readout("COc1ccc(C2(c3cc(C(C)(C)C)ccc3O)C(=O)Nc3ccccc32)cc1 (centres unmarked)")
2.75
>>> numeric_readout("O=C1Nc2ccccc2C1(c1cc(Cl)ccc1O)c1cc(Cl)ccc1O")
4.2

// IC50 lookup, compound = `CN(C)CCOc1ccc(C(C)(C)C)cc1C1(c2cc(C(C)(C)C)ccc2OCCN(C)C)C(=O)Nc2ccccc21` , result: 12.5

// IC50 lookup, compound = CC(C)(C)c1ccc(O)c(C2(c3cc(C(C)(C)C)ccc3OCCN3CCOCC3)C(=O)Nc3ccccc32)c1 (centres unmarked) , result: 3.2

// IC50 lookup, compound = `O=C1Nc2ccccc2C1(c1cc(C2CCCC2)ccc1OCCO)c1cc(C2CCCC2)ccc1OCCO` , result: 1.3

// IC50 lookup, compound = CC(C)(C)c1ccc(OCCN2CCOCC2)c(C2(c3ccccc3)C(=O)Nc3ccccc32)c1 (centres unmarked) , result: 2.4

// IC50 lookup, compound = CCCCc1ccc(O)c(C2(c3ccccc3)C(=O)Nc3ccccc32)c1 (centres unmarked) [Compound 1287, reference compound] , result: 2.8

---

Tested on: CRL-2813
Experiment: Cell growth assay (sulforhodamine B), CRL-2813 cells
Assay type: cell-based, human
Conditions: Homo sapiens, CRL2813, 120 h, 5 days, SRB
Response field label takes YES when IC50 is strictly below 2 µM and NO in all other cases.

Record excerpt, results attached:
>>> category_label("CC(C)(C)c1ccc(O)c(C2(c3ccccc3)C(=O)Nc3ccc(OC(F)(F)F)cc32)c1 (stereo not shown)")
"YES"
>>> category_label("CCCN1C(=O)C(c2cc(C(C)(C)C)ccc2O)(c2cc(C(C)(C)C)ccc2OCCN2CCCC2)c2ccccc21 (stereo not shown)")
"YES"
>>> category_label("CC(C)(C)c1ccc(OCCN2CCOCC2)c(C2(c3cc(C(C)(C)C)ccc3OCCN3CCOCC3)C(=O)Nc3ccccc32)c1")
"NO"
>>> category_label("COc1ccc(C2(c3cc(C(C)(C)C)ccc3OCCN3CCOCC3)C(=O)Nc3ccccc32)cc1F (stereo not shown)")
"NO"
>>> category_label("COc1ccc(C(C)C)cc1C1(c2cc(C(C)C)ccc2O)C(=O)Nc2ccccc21 (stereo not shown)")
"YES"
>>> category_label("CC(C)(C)c1ccc(OCCN2CCNCC2)c(C2(c3cc(C(C)(C)C)ccc3OCCN3CCNCC3)C(=O)Nc3ccccc32)c1")
"YES"

We next turn to a different compound, shown below.
Quick check: IC50 of CC(C)(C)c1ccc(O)c(C2(c3ccc(O)cc3)C(=O)Nc3c2ccc(F)c3F)c1 (stereo not shown) under 2 µM? NO
